# target.desc: G-protein coupled receptor 151 (Homo sapiens) (UniProt Q8TDV0)
# Sequence (Q8TDV0 whole entry, looked up): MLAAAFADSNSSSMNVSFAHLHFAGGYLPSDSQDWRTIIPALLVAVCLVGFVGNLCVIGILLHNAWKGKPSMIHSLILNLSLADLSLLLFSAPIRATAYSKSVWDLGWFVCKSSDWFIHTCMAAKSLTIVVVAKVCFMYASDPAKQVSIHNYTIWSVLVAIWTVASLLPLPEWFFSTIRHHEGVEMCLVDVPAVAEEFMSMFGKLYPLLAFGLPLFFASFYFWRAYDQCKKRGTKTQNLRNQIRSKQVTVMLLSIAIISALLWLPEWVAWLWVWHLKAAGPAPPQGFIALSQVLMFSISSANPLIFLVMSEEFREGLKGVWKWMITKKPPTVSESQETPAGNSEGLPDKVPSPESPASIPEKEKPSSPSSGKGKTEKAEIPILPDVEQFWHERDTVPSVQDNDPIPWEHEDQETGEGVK
# assay.text: GPR151 activator potency, dose response, cell-based (AID 1508610)
# condition.notes: cell-based GPR151 activation reporter
Activity calls are given as the source filed them. The rule behind the calls is not given here.
Parameter call: string, one of active, inactive

Ask: Tell me the recorded outcome of this test for "O=C(c1cccs1)N1CCN=C1SCc1cccc([N+](=O)[O-])c1" .
Reply: inactive

Ask: How did this test come out for O=C(NCc1ccc(Cl)cc1)C1C2C=CC3(CN(Cc4ccccc4)C(=O)C13)O2 (centres undefined) ?
Reply: inactive

Ask: Recorded test outcome, item "CCN(CC)c1ccc(NC(=O)/C=C\C(=O)O)cc1"
Reply: inactive

Ask: Assay outcome for "Cc1ccccc1-n1c(=O)cc(NCCCn2ccnc2)[nH]c1=O" : what was it?
Reply: inactive

Ask: Can you look up the reported call for "CCOC(=O)c1c(NC(=O)C(C)C)sc(C(C)=O)c1C" for me?
Reply: inactive

Ask: Record lookup: outcome of this test for "O=C(Nc1c2c(nn1-c1cccc(Cl)c1)CSC2)c1ccccc1Br" ?
Reply: inactive

Ask: Tell me the assay call for "CCOc1ccc(-c2n[nH]c(=S)n2-c2ccccc2)cc1" please.
Reply: inactive

Ask: Would you mind telling me which call this test gave "Nc1cccc(-c2nc3ccc(N)cc3s2)c1" ?
Reply: inactive

Ask: What is the recorded call for this compound in the test? "c1ccc2[nH]c(-c3nc4ccccc4o3)nc2c1"
Reply: inactive

Ask: What is the recorded call for this compound in the test? "Fc1ccc2nc(N3CCN(c4nc5ccccc5s4)CC3)sc2c1"
Reply: inactive

Ask: // param item: "O=C(Nc1ccc(Br)cc1)c1ccc(Br)c(S(=O)(=O)N2CCCCC2)c1" ; yields the recorded call
Reply: inactive

Ask: Test call for this compound, please: CCC(C)NC(=O)c1cc(=O)[nH]c2ccc(Br)cc12 (centres undefined)
Reply: active

Ask: Answer briefly: the call reported for "C/C=C/C(=O)N(CC)c1ccccc1C" in this assay.
Reply: inactive

Ask: Hi team, can someone confirm the assay call for COc1cccc(/C=N/NC(=O)C(C)Nc2ccc(C)cc2)c1O (centres undefined) ?
Reply: inactive

Ask: For this compound, state the assay outcome: CC1CC(=O)N(C)c2ccccc2S1 (centres undefined)
Reply: inactive

Ask: Kindly provide the recorded test outcome for the following compound: "COc1cc(CNc2ccc3ncc(-c4cnn(C)c4)n3n2)cc(OC)c1OC"
Reply: inactive

Ask: Could you kindly confirm the outcome this assay logged for "Cn1c(=O)c2c(SCCC3OCCO3)nc(C3CCCCC3)nc2n(C)c1=O" ?
Reply: inactive

Ask: Identify the outcome logged in this assay for the compound shown: "NP(=O)(Oc1ccc(Cl)cc1)Oc1ccc(Cl)cc1"
Reply: inactive

Ask: Can you look up the reported call for "CC(=O)Oc1ccccc1N1C(=O)c2cccc([N+](=O)[O-])c2C1=O" for me?
Reply: inactive

Ask: Which outcome was assigned to "Cc1ccc(C(=O)Nc2cccc(C(=O)O)c2)cc1" in this test?
Reply: inactive

Ask: # outcome recorded in this test, key = "Cc1nc2ccccc2n1CC(=O)N1CCc2c(nc(N3CCCC3)[nH]c2=O)C1"
Reply: inactive

Ask: Recorded test call requested for "COc1cccc(OC)c1C(=O)Nc1ccc(Br)cn1"
Reply: inactive

Ask: Query: recorded result category for "Cn1nc(C(=O)NCc2ccc(F)cc2)c2c1-c1ccccc1OC2" in this test
Reply: inactive

Ask: For "Clc1ccccc1/C=C/c1nc(-c2ccccn2)no1" , which call appears in the assay record?
Reply: inactive
